- assay-system: NDM-1 (Klebsiella pneumoniae)
- Sequence (C7C422 29-270, looked up, species assumed): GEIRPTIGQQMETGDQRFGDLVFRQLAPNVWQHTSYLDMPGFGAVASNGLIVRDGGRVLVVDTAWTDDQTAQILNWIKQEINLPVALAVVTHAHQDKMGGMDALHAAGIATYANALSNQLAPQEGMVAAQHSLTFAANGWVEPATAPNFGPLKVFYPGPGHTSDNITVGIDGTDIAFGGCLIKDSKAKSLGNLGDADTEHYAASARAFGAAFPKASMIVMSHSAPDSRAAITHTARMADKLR
- assay-comment: In vitro enzyme inhibition assay, purified recombinant NDM-1
- Format: biochemical
- condition-description: IC50 NDM-1 - Zn, Zn2+-depleted (Chelex-100-treated) buffer
recorded-endpoint: pIC50
On this scale, pIC50 is minus log10 of a concentration expressed in M (mol/L).

Here are 2 compounds together with their reported answers.
compound="N[C@@H](CN[C@@H](CN[C@@H](Cc1ccc(OP(=O)(O)O)cc1)C(=O)O)C(=O)O)C(=O)O (mixture of isomers)" recorded_endpoint=pIC50 numeric_result=4.60
compound="CC(C)(S)C(NC[C@H](NC[C@H](N)C(=O)O)C(=O)O)C(=O)O (stereo in doubt) [Compound 15]" recorded_endpoint=pIC50 numeric_result=4.01

Next, consider the following compound.
Entry under review: "N[C@@H](CN[C@@H](CN[C@@H](Cc1cccs1)C(=O)O)C(=O)O)C(=O)O" . Reported pIC50?
5.01
